- SYSTEM NAME: UniProt P56560
- Sequence (P56560 whole entry): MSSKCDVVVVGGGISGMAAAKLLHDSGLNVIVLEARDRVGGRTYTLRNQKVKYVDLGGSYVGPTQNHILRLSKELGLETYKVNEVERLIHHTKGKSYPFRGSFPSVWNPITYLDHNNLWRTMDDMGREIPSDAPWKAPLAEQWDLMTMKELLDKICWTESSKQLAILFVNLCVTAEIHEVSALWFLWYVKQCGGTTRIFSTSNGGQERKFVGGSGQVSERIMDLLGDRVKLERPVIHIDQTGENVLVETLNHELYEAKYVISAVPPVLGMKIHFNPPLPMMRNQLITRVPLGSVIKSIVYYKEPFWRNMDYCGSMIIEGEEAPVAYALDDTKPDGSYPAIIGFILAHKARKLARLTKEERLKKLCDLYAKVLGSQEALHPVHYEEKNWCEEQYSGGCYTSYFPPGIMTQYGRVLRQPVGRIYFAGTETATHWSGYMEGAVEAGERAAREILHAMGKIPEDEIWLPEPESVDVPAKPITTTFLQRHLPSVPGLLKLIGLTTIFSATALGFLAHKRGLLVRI
- EXPERIMENT: Tested for inhibition- binding affinity against monoamine oxidase B catalyzed oxidation.
- REPORTED CONDITIONS: read-out: kon (M-1-s-1)
Recorded kon values for a group of compounds are listed next.
OBSERVED PROPERTY: kon

SMILES REPR	OBSERVED PROPERTY	REPORTED
C1=C(c2cccc3ccccc23)CCN(C2CC2)C1	kon	110000 M⁻¹ s⁻¹
C1=C(c2ccc3ccccc3c2)CCN(C2CC2)C1	kon	150000 M⁻¹ s⁻¹
C1=C(c2ccccc2)CCN(C2CC2)C1	kon	180000 M⁻¹ s⁻¹
C1=C(c2cccc(-c3ccccc3)c2)CCN(C2CC2)C1	kon	440000 M⁻¹ s⁻¹

---

- SYSTEM NAME: Amine oxidase [flavin-containing] A (Homo sapiens)
- Sequence (P21397 whole entry): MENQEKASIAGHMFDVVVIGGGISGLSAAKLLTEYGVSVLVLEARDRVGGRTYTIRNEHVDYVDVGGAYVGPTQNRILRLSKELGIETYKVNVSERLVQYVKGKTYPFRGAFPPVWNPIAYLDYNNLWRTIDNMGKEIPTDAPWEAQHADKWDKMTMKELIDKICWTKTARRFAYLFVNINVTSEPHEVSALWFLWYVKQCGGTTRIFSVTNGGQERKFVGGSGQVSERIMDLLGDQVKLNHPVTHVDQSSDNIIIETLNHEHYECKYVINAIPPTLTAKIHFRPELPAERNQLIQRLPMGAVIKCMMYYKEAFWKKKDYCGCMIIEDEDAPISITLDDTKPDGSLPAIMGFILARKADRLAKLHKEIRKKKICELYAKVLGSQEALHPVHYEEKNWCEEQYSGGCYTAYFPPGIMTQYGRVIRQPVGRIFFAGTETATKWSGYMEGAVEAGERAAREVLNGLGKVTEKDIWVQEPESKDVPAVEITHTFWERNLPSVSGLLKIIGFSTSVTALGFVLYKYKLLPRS
- EXPERIMENT: Tested for inhibition- binding affinity against monoamine oxidase A catalyzed oxidation.
- REPORTED CONDITIONS: read-out: kon (M-1-s-1)
Recorded kon values for a group of compounds are listed next.

SMILES REPR	kon
C1=C(c2ccccc2-c2ccccc2)CCN(C2CC2)C1	220000 M⁻¹ s⁻¹
C1=C(c2cccc3ccccc23)CCN(C2CC2)C1	400000 M⁻¹ s⁻¹
C1=C(c2ccc3ccccc3c2)CCN(C2CC2)C1	380000 M⁻¹ s⁻¹
C1=C(c2cccc(-c3ccccc3)c2)CCN(C2CC2)C1	680000 M⁻¹ s⁻¹
C1=C(c2ccccc2)CCN(C2CC2)C1	50000 M⁻¹ s⁻¹
